test system: 5-hydroxytryptamine receptor 2B (Homo sapiens, UniProt P41595)
Sequence (P41595 whole entry): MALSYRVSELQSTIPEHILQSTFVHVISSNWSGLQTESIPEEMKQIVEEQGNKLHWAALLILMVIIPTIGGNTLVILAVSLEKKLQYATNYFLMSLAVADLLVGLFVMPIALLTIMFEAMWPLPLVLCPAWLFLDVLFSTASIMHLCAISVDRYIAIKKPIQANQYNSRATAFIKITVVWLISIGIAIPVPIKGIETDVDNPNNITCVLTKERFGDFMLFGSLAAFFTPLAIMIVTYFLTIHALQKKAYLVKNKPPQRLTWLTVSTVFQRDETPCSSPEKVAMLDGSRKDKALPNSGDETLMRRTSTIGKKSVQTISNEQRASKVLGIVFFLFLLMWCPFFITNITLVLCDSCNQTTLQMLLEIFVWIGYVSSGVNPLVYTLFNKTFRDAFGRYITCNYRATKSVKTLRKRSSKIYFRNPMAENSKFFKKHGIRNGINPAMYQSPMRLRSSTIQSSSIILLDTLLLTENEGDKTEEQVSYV
Type: functional, cell-based
// reported AC50 for each item listed

Consider the reported AC50 for these compounds:
>  <compound>
CCCC(C)C1(CC)C(=O)NC(=O)NC1=O (stereo not drawn)

>  <test system>
5-hydroxytryptamine receptor 2B (Homo sapiens, UniProt P41595)

>  <measured result>
> 10 µM

$$$$
>  <compound>
Cn1nnc2c(C(N)=O)ncn2c1=O [TEMOZOLOMIDE]

>  <test system>
5-hydroxytryptamine receptor 2B (Homo sapiens, UniProt P41595)

>  <measured result>
> 30 µM

$$$$
>  <compound>
CC(C)(C)c1cc(C(C)(C)C)c(NC(=O)c2c[nH]c3ccccc3c2=O)cc1O

>  <test system>
5-hydroxytryptamine receptor 2B (Homo sapiens, UniProt P41595)

>  <measured result>
> 10 µM

$$$$
>  <compound>
CCCCCNC(=N)N/N=C/c1c[nH]c2ccc(OC)cc12

>  <test system>
5-hydroxytryptamine receptor 2B (Homo sapiens, UniProt P41595)

>  <measured result>
0.343 µM

$$$$
>  <compound>
Cc1cn([C@H]2C[C@H](N=[N+]=[N-])[C@@H](CO)O2)c(=O)[nH]c1=O

>  <test system>
5-hydroxytryptamine receptor 2B (Homo sapiens, UniProt P41595)

>  <measured result>
> 10 µM

$$$$
>  <compound>
C=CCC1(CC(C)C)C(=O)NC(=O)NC1=O

>  <test system>
5-hydroxytryptamine receptor 2B (Homo sapiens, UniProt P41595)

>  <measured result>
> 10 µM

$$$$

Q: So what does the record say about AC50 for CC=CC(=O)N(CC)c1ccccc1C ?
Result: > 10 µM

Q: So what does the record say about AC50 for Cc1ccc(-c2cc(C(F)(F)F)nn2-c2ccc(S(N)(=O)=O)cc2)cc1 ?
Result: > 10 µM

Q: So what does the record say about AC50 for C/C(O)=C(\C#N)C(=O)Nc1ccc(C(F)(F)F)cc1 [TERIFLUNOMIDE] ?
Result: > 30 µM

----------
test system: 5-hydroxytryptamine receptor 2B (Homo sapiens, UniProt P41595)
Assay type: functional, cell-based
measured attribute: AC50

Consider the reported AC50 for these compounds:
>  <compound>
C[C@H]1COc2c(C3(N)CC3)c(F)cc3c(=O)c(C(=O)O)cn1c23 [PAZUFLOXACIN]

>  <AC50>
> 10 µM

$$$$
>  <compound>
Clc1ccc(CCCOCCCN2CCCCC2)cc1 [PITOLISANT]

>  <AC50>
> 30 µM

$$$$

Q: So what does the record say about AC50 for CC(C)Cn1cnc2c(N)nc3ccccc3c21 [IMIQUIMOD] ?
Result: 19 µM

Q: So what does the record say about AC50 for CN1CCC(=C2c3ccccc3CCc3sccc32)CC1 [PIZOTYLINE] ?
Result: > 30 µM

Q: So what does the record say about AC50 for CC[C@@H](C(N)=O)N1CCCC1=O ?
Result: > 30 µM

----------
// reported AC50 for each item listed
test system: Voltage-gated inwardly rectifying potassium channel KCNH2 (Homo sapiens); note: assay procedure not described here
Sequence (Q12809 whole entry): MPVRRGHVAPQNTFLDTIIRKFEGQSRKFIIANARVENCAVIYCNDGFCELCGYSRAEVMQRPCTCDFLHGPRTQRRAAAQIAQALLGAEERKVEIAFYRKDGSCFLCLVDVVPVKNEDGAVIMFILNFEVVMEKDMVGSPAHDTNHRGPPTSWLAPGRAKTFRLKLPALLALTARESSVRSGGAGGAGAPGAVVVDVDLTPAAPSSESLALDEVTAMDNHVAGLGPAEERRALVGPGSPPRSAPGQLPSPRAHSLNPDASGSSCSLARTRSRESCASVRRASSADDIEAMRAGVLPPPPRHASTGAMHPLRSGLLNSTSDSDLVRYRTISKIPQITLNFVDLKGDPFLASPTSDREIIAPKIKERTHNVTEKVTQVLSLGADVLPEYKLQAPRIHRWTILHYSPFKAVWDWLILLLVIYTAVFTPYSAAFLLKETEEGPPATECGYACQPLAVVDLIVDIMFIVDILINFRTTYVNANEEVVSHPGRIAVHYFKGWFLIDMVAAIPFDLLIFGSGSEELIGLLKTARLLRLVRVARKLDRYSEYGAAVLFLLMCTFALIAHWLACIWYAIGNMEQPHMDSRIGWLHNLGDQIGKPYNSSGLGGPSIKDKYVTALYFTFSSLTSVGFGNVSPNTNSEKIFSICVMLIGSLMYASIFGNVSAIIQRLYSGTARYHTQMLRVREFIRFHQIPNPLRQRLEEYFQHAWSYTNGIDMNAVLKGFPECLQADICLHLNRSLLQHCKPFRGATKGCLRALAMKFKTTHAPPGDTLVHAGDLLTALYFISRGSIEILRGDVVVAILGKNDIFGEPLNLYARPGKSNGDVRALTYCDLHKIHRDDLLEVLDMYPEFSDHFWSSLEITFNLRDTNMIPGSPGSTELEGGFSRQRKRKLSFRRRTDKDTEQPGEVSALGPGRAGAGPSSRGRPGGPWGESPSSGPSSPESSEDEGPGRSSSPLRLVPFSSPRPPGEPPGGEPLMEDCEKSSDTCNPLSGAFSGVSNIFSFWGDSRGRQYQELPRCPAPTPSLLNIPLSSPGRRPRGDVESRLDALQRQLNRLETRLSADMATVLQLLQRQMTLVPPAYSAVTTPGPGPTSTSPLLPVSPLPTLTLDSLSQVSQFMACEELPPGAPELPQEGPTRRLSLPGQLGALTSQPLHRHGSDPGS
Type: functional
test conditions: read-out: AC50; note: assay procedure not described here

>  <compound>
CCCCCCOc1ccccc1C(N)=O [EXALAMIDE]

>  <AC50>
> 30 µM

$$$$
>  <compound>
CC(=O)Oc1c(C)c(C)c2c(c1C)CC[C@@](C)(CCC[C@H](C)CCC[C@H](C)CCCC(C)C)O2

>  <AC50>
> 30 µM

$$$$

Q: Lab request: please report AC50 under test system Voltage-gated inwardly rectifying potassium channel KCNH2 (Homo sapiens) for COc1ccc2c3c1O[C@H]1[C@@H](O)CC[C@H]4[C@@H](C2)N(C)CC[C@@]341 [DIHYDROCODEINE]; note: assay procedure not described here
Result: > 30 µM

Q: Lab request: please report AC50 under test system Voltage-gated inwardly rectifying potassium channel KCNH2 (Homo sapiens) for O=C(O)C1=C(CSc2nnnn2CS(=O)(=O)O)CS[C@@H]2[C@H](NC(=O)[C@H](O)c3ccccc3)C(=O)N12 [CEFONICID]; note: assay procedure not described here
Result: > 30 µM

Q: Lab request: please report AC50 under test system Voltage-gated inwardly rectifying potassium channel KCNH2 (Homo sapiens) for O=C(NCCNCC(O)COc1ccc(O)cc1)N1CCOCC1 (stereo not given) [XAMOTEROL]; note: assay procedure not described here
Result: > 30 µM

Q: Lab request: please report AC50 under test system Voltage-gated inwardly rectifying potassium channel KCNH2 (Homo sapiens) for Nc1ccc2cc3ccc(N)cc3nc2c1 [PROFLAVINE]; note: assay procedure not described here
Result: 5 µM

Q: Lab request: please report AC50 under test system Voltage-gated inwardly rectifying potassium channel KCNH2 (Homo sapiens) for CCC1=C(C)CN(C(=O)NCCc2ccc(S(=O)(=O)NC(=O)N[C@H]3CC[C@H](C)CC3)cc2)C1=O [GLIMEPIRIDE]; note: assay procedure not described here
Result: > 30 µM

Q: Lab request: please report AC50 under test system Voltage-gated inwardly rectifying potassium channel KCNH2 (Homo sapiens) for CC(C)(C)C(=O)OCOC(=O)[C@@H]1N2C(=O)[C@@H](NC(=O)[C@H](N)c3ccccc3)[C@H]2SC1(C)C [PIVAMPICILLIN]; note: assay procedure not described here
Result: > 30 µM

Q: Lab request: please report AC50 under test system Voltage-gated inwardly rectifying potassium channel KCNH2 (Homo sapiens) for CCN(CC)CCOC(=O)C(c1ccccc1)C1CCCCC1 (stereo not given) [DROFENINE]; note: assay procedure not described here
Result: 4.7 µM

Q: Lab request: please report AC50 under test system Voltage-gated inwardly rectifying potassium channel KCNH2 (Homo sapiens) for CN1C(C(=O)Nc2ccccn2)=C(O)c2sc(Cl)cc2S1(=O)=O [LORNOXICAM]; note: assay procedure not described here
Result: > 30 µM

Q: Lab request: please report AC50 under test system Voltage-gated inwardly rectifying potassium channel KCNH2 (Homo sapiens) for Cn1c(=O)c2c(ncn2CC2OCCO2)n(C)c1=O [DOXOFYLLINE]; note: assay procedure not described here
Result: > 30 µM

Q: Lab request: please report AC50 under test system Voltage-gated inwardly rectifying potassium channel KCNH2 (Homo sapiens) for CCCCCNC(=N)N/N=C/c1c[nH]c2ccc(OC)cc12 [TEGASEROD]; note: assay procedure not described here
Result: 4.8 µM

Q: Lab request: please report AC50 under test system Voltage-gated inwardly rectifying potassium channel KCNH2 (Homo sapiens) for CC(C)C[C@H]1C(=O)N2CCC[C@H]2[C@]2(O)O[C@](NC(=O)[C@@H]3C[C@@H]4c5cccc6[nH]cc(c56)C[C@H]4N(C)C3)(C(C)C)C(=O)N12 [DIHYDROERGOCRYPTINE]; note: assay procedure not described here
Result: > 30 µM

Q: Lab request: please report AC50 under test system Voltage-gated inwardly rectifying potassium channel KCNH2 (Homo sapiens) for CN1CCN(C2=Nc3ccccc3Sc3ccc(Cl)cc32)CC1 [CLOTHIAPINE]; note: assay procedure not described here
Result: 4.1 µM

Q: Lab request: please report AC50 under test system Voltage-gated inwardly rectifying potassium channel KCNH2 (Homo sapiens) for Clc1ccc(CCCOCCCN2CCCCC2)cc1 [PITOLISANT]; note: assay procedure not described here
Result: 1.7 µM

Q: Lab request: please report AC50 under test system Voltage-gated inwardly rectifying potassium channel KCNH2 (Homo sapiens) for CC(C)=CCC/C(C)=C/C=C/C(C)=C/C=C/C(C)=C/C=C/C=C(C)/C=C/C=C(C)/C=C/C=C(\C)CCC=C(C)C [LYCOPENE]; note: assay procedure not described here
Result: > 30 µM

Q: Lab request: please report AC50 under test system Voltage-gated inwardly rectifying potassium channel KCNH2 (Homo sapiens) for COc1ccc(CCN(C)CCCC(C#N)(c2cc(OC)c(OC)c(OC)c2)C(C)C)cc1OC (stereo not given) [GALLOPAMIL]; note: assay procedure not described here
Result: 1.9 µM

Q: Lab request: please report AC50 under test system Voltage-gated inwardly rectifying potassium channel KCNH2 (Homo sapiens) for CCCCCCOc1nsnc1C1=CCCN(C)C1 [XANOMELINE]; note: assay procedure not described here
Result: 1.3 µM

Q: Lab request: please report AC50 under test system Voltage-gated inwardly rectifying potassium channel KCNH2 (Homo sapiens) for CC(=O)O[C@H]1C[C@@H]2CC[C@@H]3[C@H](CC[C@@]4(C)[C@H]3C[C@H]([N+]3(C)CCCCC3)[C@@H]4OC(C)=O)[C@@]2(C)C[C@@H]1N1CCCCC1 [VECURONIUM]; note: assay procedure not described here
Result: 10.4 µM

Q: Lab request: please report AC50 under test system Voltage-gated inwardly rectifying potassium channel KCNH2 (Homo sapiens) for CN(C)/N=N/c1[nH]cnc1C(N)=O [DACARBAZINE]; note: assay procedure not described here
Result: > 30 µM

----------
// reported AC50 for each item listed
test system: Prostaglandin G/H synthase 1 (Homo sapiens); note: assay procedure not described here
Sequence (P23219 whole entry): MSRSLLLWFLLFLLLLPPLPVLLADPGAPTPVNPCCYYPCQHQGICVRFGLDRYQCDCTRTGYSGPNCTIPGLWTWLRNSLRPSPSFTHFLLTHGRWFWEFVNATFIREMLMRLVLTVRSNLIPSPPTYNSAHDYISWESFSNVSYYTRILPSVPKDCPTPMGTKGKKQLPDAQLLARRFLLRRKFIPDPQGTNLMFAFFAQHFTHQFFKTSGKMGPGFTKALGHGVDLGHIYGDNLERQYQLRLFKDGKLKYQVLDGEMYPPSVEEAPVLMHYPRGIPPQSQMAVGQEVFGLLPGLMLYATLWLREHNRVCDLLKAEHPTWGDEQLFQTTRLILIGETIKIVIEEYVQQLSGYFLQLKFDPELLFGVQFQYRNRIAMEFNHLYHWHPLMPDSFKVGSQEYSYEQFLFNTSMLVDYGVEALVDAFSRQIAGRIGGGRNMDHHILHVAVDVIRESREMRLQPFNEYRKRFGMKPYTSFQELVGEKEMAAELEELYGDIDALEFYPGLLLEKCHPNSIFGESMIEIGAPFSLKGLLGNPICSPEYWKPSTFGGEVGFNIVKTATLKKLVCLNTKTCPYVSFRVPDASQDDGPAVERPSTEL
Type: functional

>  <compound>
CC(=O)Oc1c(C)c(C)c2c(c1C)CC[C@@](C)(CCC[C@H](C)CCC[C@H](C)CCCC(C)C)O2

>  <measured attribute>
AC50

>  <measured result>
> 30 µM

$$$$

Q: So what does the record say about AC50 for O=[N+]([O-])c1cn2c(n1)OC[C@@H](OCc1ccc(OC(F)(F)F)cc1)C2 ?
Result: > 30 µM

Q: So what does the record say about AC50 for CC(C)(C)C(=O)C(Oc1ccc(Cl)cc1)n1ccnc1 (centres undefined) ?
Result: > 30 µM
